Data origin: ChEMBL document CHEMBL3758092

- Procedure Summary: Ratio of drug level in liver to plasma in rat at 10 mg/kg, po after 6 hrs
- Assay type: ADME, organism-based
Lab note - cut at 20 for Kp at 6 h: Criterion met if strictly below, Criterion not met if not.

See these solved cases before continuing.
COc1ccc2c(c1)C1CC1(C(=O)N1C3CCC1CN(C)C3)Cn1c-2c(C2CCCCC2)c2ccc(C(=O)NS(=O)(=O)C(C)C)cc21 (racemic); Criterion met
COc1ccc2c(c1)C1CC1(C(=O)N1C3CCC1CN(C)C3)Cn1c-2c(C2CCCCC2)c2ccc(C(=O)NS(=O)(=O)CC(C)(C)C)cc21 (racemic); Criterion met
COc1ccc2c(c1)C1CC1(C(=O)N1C3CCC1CN(C)C3)Cn1c-2c(C2CCCCC2)c2ccc(C(=O)NS(=O)(=O)C3CC3)cc21 (racemic); Criterion not met
COc1ccc2c(c1)C1CC1(C(=O)N1C3CCC1CN(C)C3)Cn1c-2c(C2CCCCC2)c2ccc(C(=O)NS(=O)(=O)C3CCC3)cc21 (racemic); Criterion not met

Below: the item to evaluate.
Inquiry: Kp at 6 h strictly < 20 for this molecule? COc1ccc2c(c1)[C@@H]1C[C@]1(C(=O)N1[C@@H]3CC[C@H]1CN(C)C3)Cn1c-2c(C2CCCCC2)c2ccc(C(=O)NS(=O)(=O)N(C)C)cc21 [BECLABUVIR]
Reply text: Criterion met

---

- Procedure Summary: Ratio of drug level in liver to plasma in rat at 10 mg/kg, po after 48 hrs
- Type: ADME, organism-based
Assay Metric: Kp at 48 h
# print the numeric value only

COc1ccc2c(c1)[C@@H]1C[C@]1(C(=O)N1C3CCC1CN(C)C3)Cn1c-2c(C2CCCCC2)c2ccc(C(=O)NS(=O)(=O)C(C)C)cc21; 11

Now for a further compound.
Inquiry: Annotate the compound "COc1ccc2c(c1)[C@@H]1C[C@]1(C(=O)N1C3CCC1CN(C)C3)Cn1c-2c(C2CCCCC2)c2ccc(C(=O)NS(=O)(=O)CC(C)C)cc21" with its measured Kp at 48 h.
Reply text: 4

---

- Procedure Summary: Oral bioavailability in cynomolgus monkey at 3 mg/kg
- Type: ADME, organism-based, Macaca fascicularis
- Applied Conditions: in vivo
Assay Metric: bioavailability (%)
Reply with just the number (in %).

Inquiry: Annotate the compound "COc1ccc2c(c1)[C@@H]1C[C@]1(C(=O)N1C3CCC1CN(C)C3)Cn1c-2c(C2CCCCC2)c2ccc(C(=O)NS(=O)(=O)C(C)C)cc21" with its measured bioavailability.
Reply text: 25

---

- Procedure Summary: AUC (0 to 24 hrs) in cynomolgus monkey at 3 mg/kg, po
- Format: ADME, organism-based, Macaca fascicularis
- Parameters: dose 3 mg/kg, time < 24 hr, route oral
- Applied Conditions: in vivo
Assay Metric: AUC(0-t) at 24 h (µM·h)
Reply with just the number (in µM·h).

Inquiry: Annotate the molecule "COc1ccc2c(c1)[C@@H]1C[C@]1(C(=O)N1C3CCC1CN(C)C3)Cn1c-2c(C2CCCCC2)c2ccc(C(=O)NS(=O)(=O)C(C)C)cc21" with its measured AUC(0-t) at 24 h.
Reply text: 5.4

---

- Procedure Summary: Oral bioavailability in rat at 10 mg/kg
- Type: ADME, organism-based
- Applied Conditions: in vivo
Assay Metric: bioavailability (%)
Reply with just the number (in %).

The following compounds have reported results that may help.
COc1ccc2c(c1)[C@@H]1C[C@]1(C(=O)N1C3CCC1CN(C)C3)Cn1c-2c(C2CCCCC2)c2ccc(C(=O)NS(=O)(=O)CC(C)C)cc21; 41
COc1ccc2c(c1)C1CC1(C(=O)N1C3CCC1CN(C)C3)Cn1c-2c(C2CCCCC2)c2ccc(C(=O)NS(=O)(=O)C(C)(C)C)cc21 (racemic); 12.4
COc1ccc2c(c1)[C@@H]1C[C@]1(C(=O)N1C3CCC1CN(C)C3)Cn1c-2c(C2CCCCC2)c2ccc(C(=O)NS(=O)(=O)C(C)C)cc21; 65

Now for a further compound.
Inquiry: Annotate the compound COc1ccc2c(c1)C1CC1(C(=O)N1C3CCC1CN(C)C3)Cn1c-2c(C2CCCCC2)c2ccc(C(=O)NS(=O)(=O)CC3CC3)cc21 (racemic) with its measured bioavailability.
Reply text: 13.7

---

- Procedure Summary: AUC (0 to 24 hrs) in dog at 1 mg/kg, iv
- Type: ADME, organism-based, Canis lupus familiaris
- Parameters: dose 1 mg/kg, time < 24 hr, route intravenous
- Applied Conditions: in vivo
Assay Metric: AUC(0-t) at 24 h
Please state the number and follow it with the unit.

Inquiry: Annotate the compound "COc1ccc2c(c1)[C@@H]1C[C@]1(C(=O)N1C3CCC1CN(C)C3)Cn1c-2c(C2CCCCC2)c2ccc(C(=O)NS(=O)(=O)C(C)C)cc21" with its measured AUC(0-t) at 24 h.
Reply text: 36 µM·h

---

- Procedure Summary: Drug uptake in rat at 10 mg/kg, po liver after 4 hrs
- Assay type: ADME, organism-based
- Applied Conditions: read-out: Drug uptake
Entries and their concentration at 4 h
Please state the number and follow it with the unit.

COc1ccc2c(c1)C1CC1(C(=O)N1C3CCC1CN(C)C3)Cn1c-2c(C2CCCCC2)c2ccc(C(=O)NS(=O)(=O)C3CC3)cc21 (racemic); 6.4 µM

Inquiry: Annotate the compound COc1ccc2c(c1)C1CC1(C(=O)N1C3CCC1CN(C)C3)Cn1c-2c(C2CCCCC2)c2ccc(C(=O)NS(=O)(=O)N(C)C)cc21 (racemic) with its measured concentration at 4 h.
Reply text: 69 µM

---

- Procedure Summary: AUC (0 to 24 hrs) in rat at 5 mg/kg, iv
- Assay type: ADME, organism-based
- Design: dose 5 mg/kg, time < 24 hr, route intravenous
- Applied Conditions: in vivo
Assay Metric: AUC(0-t) at 24 h (µM·h)
Reply with just the number (in µM·h).

Inquiry: Annotate the compound "COc1ccc2c(c1)[C@@H]1C[C@]1(C(=O)N1C3CCC1CN(C)C3)Cn1c-2c(C2CCCCC2)c2ccc(C(=O)NS(=O)(=O)C(C)C)cc21" with its measured AUC(0-t) at 24 h.
Reply text: 18

---

- Procedure Summary: Drug uptake in rat at 10 mg/kg, po liver after 48 hrs
- Assay type: ADME, organism-based
- Applied Conditions: liver, read-out: Drug uptake
Assay Metric: concentration at 48 h (nM)
Reply with just the number (in nM).

COc1ccc2c(c1)[C@@H]1C[C@]1(C(=O)N1C3CCC1CN(C)C3)Cn1c-2c(C2CCCCC2)c2ccc(C(=O)NS(=O)(=O)C3CCC3)cc21; 70

Now for a further compound.
Inquiry: Annotate the compound COc1ccc2c(c1)C1CC1(C(=O)N1C3CCC1CN(C)C3)Cn1c-2c(C2CCCCC2)c2ccc(C(=O)NS(=O)(=O)CC3CC3)cc21 (racemic) with its measured concentration at 48 h.
Reply text: 150

---

- Procedure Summary: Permeability of the compound at pH 7.4 by PAMPA
- Format: ADME
- Applied Conditions: read-out: permeability
Assay Metric: Papp (×10⁻⁶ cm/s)
Reply with just the number (in ×10⁻⁶ cm/s).

The following compounds have reported results that may help.
COc1ccc2c(c1)C1CC1(C(=O)N1C3CCC1CN(C)C3)Cn1c-2c(C2CCCCC2)c2ccc(C(=O)NS(=O)(=O)N(C)C)cc21 (racemic); 71.3
COc1ccc2c(c1)C1CC1(C(=O)N1C3CCC1CN(C)C3)Cn1c-2c(C2CCCCC2)c2ccc(C(=O)NS(=O)(=O)N3CCC3)cc21 (racemic); 66.5

Inquiry: Annotate the compound CCN(C)S(=O)(=O)NC(=O)c1ccc2c(C3CCCCC3)c3n(c2c1)CC1(C(=O)N2C4CCC2CN(C)C4)CC1c1cc(OC)ccc1-3 (racemic) with its measured Papp.
Reply text: 56.1

---

- System: Hepatitis C virus
- Procedure Summary: Antiviral activity against HCV1a by replicon assay
- Format: functional, organism-based, Hepacivirus hominis
- Applied Conditions: subtype 1a
Assay Metric: EC50
Please state the number and follow it with the unit.

The following compounds have reported results that may help.
COc1ccc2c(c1)C1CC1(C(=O)N1C3CCC1CN(C)C3)Cn1c-2c(C2CCCCC2)c2ccc(C(=O)NS(=O)(=O)CC3CC3)cc21 (racemic); 5 nM
CCCCS(=O)(=O)NC(=O)c1ccc2c(C3CCCCC3)c3n(c2c1)CC1(C(=O)N2C4CCC2CN(C)C4)CC1c1cc(OC)ccc1-3 (racemic); 15 nM
CCS(=O)(=O)NC(=O)c1ccc2c(C3CCCCC3)c3n(c2c1)CC1(C(=O)N2C4CCC2CN(C)C4)CC1c1cc(OC)ccc1-3 (racemic); 17 nM
COc1ccc2c(c1)C1CC1(C(=O)N1C3CCC1CN(C)C3)Cn1c-2c(C2CCCCC2)c2ccc(C(=O)NS(=O)(=O)C(C)C)cc21 (racemic); 20 nM

Inquiry: Annotate the compound CCN(C)S(=O)(=O)NC(=O)c1ccc2c(C3CCCCC3)c3n(c2c1)CC1(C(=O)N2C4CCC2CN(C)C4)CC1c1cc(OC)ccc1-3 (racemic) with its measured EC50.
Reply text: 14 nM
